Ref: ChEMBL document CHEMBL2203196

tested on: A2780; assay: Cell cycle arrest in human A2780 cells assessed as accumulation at G2/M phase at 6.8 to 102.3 uM after 72 hrs by propidium iodide staining-based FACS flow cytometry (reference value: 23.1 +/- 2.5 %); assay type: functional
MEASURE: Activity (%)
Please give a number only; it is taken to be in %.

Some solved cases for reference:
SMILES_DATA | UNIT_OF_MEASUREMENT | Activity
CCOc1ccc(NS(=O)(=O)c2ccc(C)cc2)c2[nH]ncc12 | % | 71.4
Cc1ccc(S(=O)(=O)Nc2cccc3c2cnn3C)cc1 | % | 69.2
C=CCn1cc2ccc(NS(=O)(=O)c3ccc(C)cc3)cc2n1 | % | 72.7

Query string: Give the measured Activity of CCOc1ccc(NS(=O)(=O)c2ccc(OC)cc2)c2c(Cl)n[nH]c12 .
Result string: 69.6

Query string: Do the same for CCOc1ccc(NS(=O)(=O)c2ccc(C)cc2)c2cn(C)nc12 please
Result string: 64.5

Query string: Do the same for COc1ccc(S(=O)(=O)Nc2cccc3[nH]nc(Cl)c23)cc1 please
Result string: 70.1

Query string: Do the same for CCOc1ccc(NS(=O)(=O)c2ccc(C)cc2)c2c(Br)n[nH]c12 please
Result string: 71.5

* * *

test system: A549; assay: Induction of apoptosis in human A549 cells assessed as change in nuclear morphology at 0.97 to 957 uM after 3 days by DAPI staining-based fluorescence microscopy relative to control; assay type: functional
MEASURE: Activity (%)
Please give a number only; it is taken to be in %.

SMILES_DATA | UNIT_OF_MEASUREMENT | Activity
CCOc1ccc(NS(=O)(=O)c2ccc(C)cc2)c2[nH]ncc12 | % | 24.9
CCOc1ccc(NS(=O)(=O)c2ccc(C)cc2)c2c(Br)n[nH]c12 | % | 32.3

Query string: For A549, provide Activity of COc1ccc(S(=O)(=O)Nc2cccc3[nH]nc(Cl)c23)cc1 please.
Result string: 70.8

Query string: Do the same for CCOc1ccc(NS(=O)(=O)c2ccc(OC)cc2)c2c(Cl)n[nH]c12 please
Result string: 64.5

* * *

system: A2780; test: Induction of apoptosis in human A2780 cells assessed as change in nuclear morphology at IC50 after 3 days by DAPI staining-based fluorescence microscopy relative to control; assay type: functional
Field: label. Allowed values: y (Activity < 20%) or n (Activity >= 20%).

Worked cases, answers included:
SMILES_DATA | ANSWER_LABEL
CCOc1ccc(NS(=O)(=O)c2ccc(C)cc2)c2[nH]ncc12 | y
COc1ccc(S(=O)(=O)Nc2cccc3[nH]nc(Cl)c23)cc1 | n
CCOc1ccc(NS(=O)(=O)c2ccc(C)cc2)c2cn(C)nc12 | n
Cc1ccc(S(=O)(=O)Nc2cccc3c2cnn3C)cc1 | y
CCOc1ccc(NS(=O)(=O)c2ccc(C)cc2)c2c(Br)n[nH]c12 | y
C=CCn1cc2ccc(NS(=O)(=O)c3ccc(C)cc3)cc2n1 | y

Next up:
Query string: Field: below-cutoff. Rule: recorded Activity strictly less than 20%. Subject: CCOc1ccc(NS(=O)(=O)c2ccc(OC)cc2)c2c(Cl)n[nH]c12
Result string: n
